Target: human RBP4 (Homo sapiens (Human), UniProt P02753)
Assay: Binding assay by Retinol-RBP4-TTR ELISA
Settings: at 10 μM compound; read-out: human RBP4 binding inhibitory activity(% at 10 μM)
OBSERVABLE: inhibition at 10 µM (%)

Cc1nc(C(=O)N2CCN(c3ccccc3C(C)(C)C)CC2)cn1CC(=O)O [Example 205]; 100
CC(C)(C)c1ccccc1N1CCN(C(=O)c2ncoc2CCC(=O)O)CC1 [Example 178]; 100
CC(C)(C)c1cc(Cl)ccc1N1CCN(C(=O)C(=O)O)CC1 [Example 180]; 100
O=C(O)CCc1nc(-c2cc(C(F)(F)F)cc(C(F)(F)F)c2)co1 [Reference Example 26, reference compound]; 100
CC(C)(C)c1ccccc1N1CCN(C(=O)c2ccc(SCC(=O)O)nc2)CC1 [Example 25]; 100
CC(C)(C)c1ccccc1N1CCN(C(=O)C(=O)N2CCC(C(=O)O)CC2)CC1 [Example 89]; 99
CC(C)(C)c1ccccc1N1CCN(C(=O)C(=O)N2CCC(C(=O)O)C2)CC1 (stereo not drawn) [Example 191]; 100
CC(C)(C)c1cc(Cl)ccc1N1CCN(C(=O)c2ccc(OCC(=O)O)cn2)CC1 [Example 210]; 99
CC(C)(C)c1cc(Br)ccc1N1CCN(C(=O)CC(=O)O)CC1 [Example 69]; 99
CC(C)(C)c1ccccc1N1CCN(C(=O)C(=O)NS(=O)(=O)NCC2CC2)CC1 [Example 39]; 97
CC(C)(C)c1ccccc1N1CCN(C(=O)Cn2cnnn2)CC1 [Example 94]; 100
CC(C)(C)c1ccccc1N1CCN(C(=O)C(=O)NCC(=O)O)CC1 [Example 87]; 100
CC(C)(C)c1ccccc1N1CCN(C(=O)C2(C(=O)O)CC2)CC1 [Example 71]; 100
CC(C)(C)c1ccccc1N1CCN(C(=O)C(=O)Nc2ccc(OCC(=O)O)cc2)CC1 [Example 201]; 99
Cc1ccc(N2CCN(C(=O)C(=O)O)CC2)c(C(C)(C)C)c1 [Example 82]; 99
CC(C)(C)c1ccccc1N1CCN(C(=O)C(=O)Nc2ccc(CCC(=O)O)cc2)CC1 [Example 197]; 100
CC(C)(C)c1ccccc1N1CCN(C(=O)c2ccc(OCC(=O)O)cc2)CC1 [Example 24]; 100
CC(C)(C)c1cc(Br)ccc1N1CCN(C(=O)C(=O)O)CC1 [Example 67]; 100

---

compounds and their reported RBP4 (% of initial/Control) 4 hr
Biological target: RBP4 (Mus musculus (Mouse))
Assay: Single administration test in mice, plasma RBP4 by ELISA
Assay type: in vivo
Conditions: male C57BL/6J or ICR mice, 50 mg/kg oral single dose, 4 hr after administration, mean±SD
Method: The action of the compounds of the present invention to reduce plasma RBP4 level was evaluated using the animal model shown below. […] Male 6-12-week-old C57BL/6J or ICR mice were housed individually and fed CE2 for 4-6 days. […] Plasma RBP4 levels were measured by enzyme-linked immunosorbent assay described in the following section. Plasma samples were analyzed in duplicate for RBP4 by an enzyme-linked immunosorbent assay. […] The changes in plasma RBP4 levels were expressed as % of initial/Control. […]

// known answers, use as guide
CC(C)(C)c1cc(Br)ccc1N1CCN(C(=O)CC(=O)O)CC1; 47.7 ± 2.7 % of initial/Control
CC(C)(C)c1cc(Br)ccc1N1CCN(C(=O)C(=O)O)CC1; 44.8 ± 2.9 % of initial/Control
CC(C)(C)c1ccccc1N1CCN(C(=O)c2ccc(OCC(=O)O)cc2)CC1; 30.9 ± 2.7 % of initial/Control
CC(C)(C)c1ccccc1N1CCN(C(=O)C(=O)O)CC1; 52.4 ± 2.8 % of initial/Control

For record CC(C)(C)c1ccccc1N1CCN(C(=O)C(=O)NCCc2ccc(C(=O)O)cc2)CC1 the listed RBP4 (% of initial/Control) 4 hr is 43.4 ± 1.8 % of initial/Control
